Kindly state half-life at 1 μM for each of the entries shown.
# assay explanation: Multi-point cytosol stability assay, human
# Assay type: in vitro ADME
# measurement parameters: human cytosol fractions, pH 7.4

Solved cases (5 shown):
[[record]]
compound = "C=C[C@@H]1[C@H]2CCC[C@]1(c1cccc(O)c1)CCN2C"
reading = "> 2 h"

[[record]]
compound = "C=C[C@H]1[C@H]2CCC[C@]1(c1cccc(O)c1)CCN2CCc1ccccc1 [DC-1–76.2, reference compound]"
reading = "1.34 h"

[[record]]
compound = "C=C[C@H]1[C@H]2CCC[C@]1(c1cccc(O)c1)CCN2CCc1ccc(F)cc1"
reading = "> 2 h"

[[record]]
compound = "C=C[C@H]1C2CCCC1(c1cccc(O)c1)CCN2CCc1cccc(O)c1 (stereo in doubt)"
reading = "> 2 h"

[[record]]
compound = "C=C[C@H]1[C@H]2CCC[C@]1(c1cccc(O)c1)CCN2CCc1cccs1"
reading = "> 2 h"


Field: half-life at 1 μM. Fill in for each record below.
1. C=C[C@H]1C2CCCC1(c1cccc(O)c1)CCN2CCc1ccccc1[N+](=O)[O-] (stereo in doubt)
2. C=C[C@H]1[C@H]2CCC[C@]1(c1cccc(C(N)=O)c1)CCN2CCc1ccccc1
3. C=C[C@H]1[C@H]2CCC[C@]1(c1cccc(O)c1)CCN2CCc1cccc([N+](=O)[O-])c1

Output line:
1: 1.87 h; 2: > 2 h; 3: > 2 h
